system_name: DNA topoisomerase 2-alpha (Homo sapiens) (UniProt P11388)
Sequence (P11388 whole entry): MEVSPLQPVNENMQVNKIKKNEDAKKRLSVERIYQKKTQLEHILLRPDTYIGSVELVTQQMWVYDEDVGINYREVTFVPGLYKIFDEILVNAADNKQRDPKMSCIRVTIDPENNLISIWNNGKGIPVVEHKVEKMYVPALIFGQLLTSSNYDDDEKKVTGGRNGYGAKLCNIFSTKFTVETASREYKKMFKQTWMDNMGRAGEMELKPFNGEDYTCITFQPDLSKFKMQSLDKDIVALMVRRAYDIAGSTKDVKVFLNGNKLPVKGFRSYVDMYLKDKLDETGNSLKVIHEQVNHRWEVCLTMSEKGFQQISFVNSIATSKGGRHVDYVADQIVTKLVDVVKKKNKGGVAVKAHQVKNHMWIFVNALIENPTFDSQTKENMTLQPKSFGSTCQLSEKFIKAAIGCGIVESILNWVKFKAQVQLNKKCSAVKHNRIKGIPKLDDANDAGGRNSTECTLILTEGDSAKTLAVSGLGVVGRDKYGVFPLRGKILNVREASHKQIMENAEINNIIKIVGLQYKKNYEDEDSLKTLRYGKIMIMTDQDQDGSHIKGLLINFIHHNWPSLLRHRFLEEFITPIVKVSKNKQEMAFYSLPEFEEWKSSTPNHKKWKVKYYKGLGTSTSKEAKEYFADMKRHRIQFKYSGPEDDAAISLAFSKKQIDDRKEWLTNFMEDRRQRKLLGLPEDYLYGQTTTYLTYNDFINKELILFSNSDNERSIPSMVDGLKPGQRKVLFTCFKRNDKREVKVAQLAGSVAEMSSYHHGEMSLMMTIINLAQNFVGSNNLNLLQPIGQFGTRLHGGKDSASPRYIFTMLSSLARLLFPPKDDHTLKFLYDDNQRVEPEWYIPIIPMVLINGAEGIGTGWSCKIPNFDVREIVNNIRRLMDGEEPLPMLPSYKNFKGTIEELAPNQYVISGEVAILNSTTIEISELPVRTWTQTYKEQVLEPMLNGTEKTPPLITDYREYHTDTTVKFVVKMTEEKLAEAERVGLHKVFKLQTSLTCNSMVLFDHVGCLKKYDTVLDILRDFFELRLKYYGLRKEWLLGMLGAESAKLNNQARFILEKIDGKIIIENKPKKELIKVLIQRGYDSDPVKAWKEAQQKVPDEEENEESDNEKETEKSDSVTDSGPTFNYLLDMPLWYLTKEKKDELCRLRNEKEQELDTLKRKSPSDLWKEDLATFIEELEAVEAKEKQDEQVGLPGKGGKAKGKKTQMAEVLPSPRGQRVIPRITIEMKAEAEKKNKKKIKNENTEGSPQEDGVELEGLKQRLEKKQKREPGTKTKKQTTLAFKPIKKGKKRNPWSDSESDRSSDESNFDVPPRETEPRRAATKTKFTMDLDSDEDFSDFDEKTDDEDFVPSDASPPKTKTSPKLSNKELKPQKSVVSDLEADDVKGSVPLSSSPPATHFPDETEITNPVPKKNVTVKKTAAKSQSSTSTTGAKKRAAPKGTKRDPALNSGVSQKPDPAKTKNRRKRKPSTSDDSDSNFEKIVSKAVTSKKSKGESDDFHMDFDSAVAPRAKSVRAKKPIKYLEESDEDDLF
assay_comment: Inhibition of human topoisomerase 2alpha-mediated relaxation of supercoiled pBR322 DNA at 100 uM after 30 mins using ethidium bromide staining by transillumination analysis
recorded_endpoint: inhibition (%)
Express your answer in %, writing the number without its unit.

Worked cases, inhibition given:
| compound | inhibition (%) |
| --- | --- |
| O=c1c2ccccc2oc2cc(OCC(O)COCCO)cc(O)c12 (stereo not drawn) | 89.2 |
| O=c1c2ccccc2oc2cc(OCC(O)CNCCCO)cc(O)c12 (stereo not drawn) | 100 |
| O=c1c2ccccc2oc2cc(OCC(O)CN(CCO)CCO)cc(O)c12 (stereo not drawn) | 100 |
| COc1cc([C@@H]2c3cc4c(cc3[C@@H](O[C@@H]3O[C@@H]5CO[C@@H](C)O[C@H]5[C@H](O)[C@H]3O)[C@H]3COC(=O)[C@H]23)OCO4)cc(OC)c1O [ETOPOSIDE] | 77.1 |
| O=c1c2ccccc2oc2cc(OCC(O)CNCCO)cc(O)c12 (stereo not drawn) | 100 |
| O=c1c2ccccc2oc2cc(OCC(O)CSCCCO)cc(O)c12 (stereo not drawn) | 68 |

Prompt line: Look up inhibition: CCCNCC(O)COc1cc(O)c2c(=O)c3ccccc3oc2c1 (stereo not drawn)
Response line: 100

Prompt line: Look up inhibition: O=c1c2ccccc2oc2cc(OCC(O)CSCCO)cc(O)c12 (stereo not drawn)
Response line: 63.8

====

Test system: DU-145
assay_comment: Cytotoxicity against human DU145 cells after 2 days
Type: functional, cell-based
study_conditions: DU-145, 48 h
recorded_endpoint: pIC50
By convention, pIC50 is the negative base-10 log of a molar concentration.

| molecule | result_value |
| --- | --- |
| O=c1c2ccccc2oc2cc(OCC(O)CSCCCO)cc(O)c12 (stereo not given) | 4.39 |
| O=c1c2ccccc2oc2cc(OCC(O)CNCCCO)cc(O)c12 (stereo not given) | 5.80 |
| O=c1c2ccccc2oc2cc(OCC(O)CSCCO)cc(O)c12 (stereo not given) | 5.46 |
| O=c1c2ccccc2oc2cc(OCC(O)CNCCO)cc(O)c12 (stereo not given) | 5.39 |
| COc1cc([C@@H]2c3cc4c(cc3[C@@H](O[C@@H]3O[C@@H]5CO[C@@H](C)O[C@H]5[C@H](O)[C@H]3O)[C@H]3COC(=O)[C@H]23)OCO4)cc(OC)c1O [ETOPOSIDE] | 5.66 |

We next turn to a different molecule, shown below.
Prompt line: Look up pIC50: `CC[C@@]1(O)C(=O)OCc2c1cc1n(c2=O)Cc2cc3ccccc3nc2-1`
Response line: 6.51

====

Measured inhibition of individual entries
system_name: DNA topoisomerase 2-alpha (Homo sapiens) (UniProt P11388)
assay_comment: Inhibition of human topoisomerase 2alpha-mediated relaxation of supercoiled pBR322 DNA at 10 uM after 30 mins using ethidium bromide staining by transillumination analysis

Worked cases, inhibition given:
| molecule | inhibition |
| --- | --- |
| O=c1c2ccccc2oc2cc(OCC(O)CSCCO)cc(O)c12 (stereo not drawn) | 26.3% |
| COc1cc([C@@H]2c3cc4c(cc3[C@@H](O[C@@H]3O[C@@H]5CO[C@@H](C)O[C@H]5[C@H](O)[C@H]3O)[C@H]3COC(=O)[C@H]23)OCO4)cc(OC)c1O [ETOPOSIDE] | 26% |
| O=c1c2ccccc2oc2cc(OCC(O)CN(CCO)CCO)cc(O)c12 (stereo not drawn) | 17.4% |

Prompt line: // lookup inhibition | system=DNA topoisomerase 2-alpha (Homo sapiens) (UniProt P11388) | key= O=c1c2ccccc2oc2cc(OCC(O)CNCCCO)cc(O)c12 (stereo not drawn)
Response line: 38.7%

Prompt line: // lookup inhibition | system=DNA topoisomerase 2-alpha (Homo sapiens) (UniProt P11388) | key= O=c1c2ccccc2oc2cc(OCC(O)COCCO)cc(O)c12 (stereo not drawn)
Response line: 23.4%

Prompt line: // lookup inhibition | system=DNA topoisomerase 2-alpha (Homo sapiens) (UniProt P11388) | key= CCCNCC(O)COc1cc(O)c2c(=O)c3ccccc3oc2c1 (stereo not drawn)
Response line: 41.2%

Prompt line: // lookup inhibition | system=DNA topoisomerase 2-alpha (Homo sapiens) (UniProt P11388) | key= O=c1c2ccccc2oc2cc(OCC(O)CSCCCO)cc(O)c12 (stereo not drawn)
Response line: 17.5%

Prompt line: // lookup inhibition | system=DNA topoisomerase 2-alpha (Homo sapiens) (UniProt P11388) | key= O=c1c2ccccc2oc2cc(OCC(O)CNCCO)cc(O)c12 (stereo not drawn)
Response line: 35.5%

====

system_name: DNA topoisomerase 2-alpha (Homo sapiens)
assay_comment: Inhibition of human topoisomerase 2alpha-mediated relaxation of supercoiled pBR322 DNA at 20 uM after 30 mins using ethidium bromide staining by transillumination analysis
# binarize inhibition: threshold 50% inclusive, high side Yes, low side No

Take a look at these entries with their results.
| molecule | category |
| --- | --- |
| O=c1c2ccccc2oc2cc(OCC(O)CNCCCO)cc(O)c12 (configuration not stated) | Yes |
| O=c1c2ccccc2oc2cc(OCC(O)CNCCO)cc(O)c12 (configuration not stated) | Yes |

Prompt line: Say whether O=c1c2ccccc2oc2cc(OCC(O)CN(CCO)CCO)cc(O)c12 (configuration not stated) shows inhibition of 50% or more.
Response line: No

Prompt line: Say whether O=c1c2ccccc2oc2cc(OCC(O)COCCO)cc(O)c12 (configuration not stated) shows inhibition of 50% or more.
Response line: No

Prompt line: Say whether O=c1c2ccccc2oc2cc(OCC(O)CSCCCO)cc(O)c12 (configuration not stated) shows inhibition of 50% or more.
Response line: No

Prompt line: Say whether CCCNCC(O)COc1cc(O)c2c(=O)c3ccccc3oc2c1 (configuration not stated) shows inhibition of 50% or more.
Response line: Yes

====

system_name: DNA topoisomerase 1 (Homo sapiens) (UniProt P11387)
assay_comment: Inhibition of human recombinant topoisomerase 1-mediated relaxation of supercoiled pBR322 DNA at 20 uM after 30 mins using ethidium bromide staining by transillumination analysis
Measured inhibition of individual entries
Express your answer in %, writing the number without its unit.

| compound | recorded_endpoint | result_value |
| --- | --- | --- |
| O=c1c2ccccc2oc2cc(OCC(O)CSCCCO)cc(O)c12 (configuration not stated) | inhibition | 0 |

Prompt line: Look up inhibition: O=c1c2ccccc2oc2cc(OCC(O)COCCO)cc(O)c12 (configuration not stated)
Response line: 0

Prompt line: Look up inhibition: O=c1c2ccccc2oc2cc(OCC(O)CNCCCO)cc(O)c12 (configuration not stated)
Response line: 3.45

====

System: DU-145
assay_comment: Cytotoxicity against human DU145 cells after 2 days
Format: functional, cell-based
study_conditions: DU-145, 48 h
Where a name gives a salt, the structure may show the parent alone.
recorded_endpoint: IC50

Worked cases, IC50 given:
| compound | system_name | result_value |
| --- | --- | --- |
| COc1cccc2c1C(=O)c1c(O)c3c(c(O)c1C2=O)C[C@@](O)(C(=O)CO)C[C@@H]3O[C@H]1C[C@H](N)[C@H](O)[C@H](C)O1 [DOXORUBICIN HYDROCHLORIDE] | DU-145 | 2.47 µM |
| O=c1c2ccccc2oc2cc(OCC(O)CN(CCO)CCO)cc(O)c12 (centres undefined) | DU-145 | 1.59 µM |
| CCCNCC(O)COc1cc(O)c2c(=O)c3ccccc3oc2c1 (centres undefined) | DU-145 | 0.76 µM |

We next turn to a different compound, shown below.
Prompt line: Look up IC50: O=c1c2ccccc2oc2cc(OCC(O)COCCO)cc(O)c12 (centres undefined)
Response line: 15.6 µM

====

Measured inhibition of individual entries
system_name: DNA topoisomerase 1 (Homo sapiens) (UniProt P11387)
Sequence (whole entry): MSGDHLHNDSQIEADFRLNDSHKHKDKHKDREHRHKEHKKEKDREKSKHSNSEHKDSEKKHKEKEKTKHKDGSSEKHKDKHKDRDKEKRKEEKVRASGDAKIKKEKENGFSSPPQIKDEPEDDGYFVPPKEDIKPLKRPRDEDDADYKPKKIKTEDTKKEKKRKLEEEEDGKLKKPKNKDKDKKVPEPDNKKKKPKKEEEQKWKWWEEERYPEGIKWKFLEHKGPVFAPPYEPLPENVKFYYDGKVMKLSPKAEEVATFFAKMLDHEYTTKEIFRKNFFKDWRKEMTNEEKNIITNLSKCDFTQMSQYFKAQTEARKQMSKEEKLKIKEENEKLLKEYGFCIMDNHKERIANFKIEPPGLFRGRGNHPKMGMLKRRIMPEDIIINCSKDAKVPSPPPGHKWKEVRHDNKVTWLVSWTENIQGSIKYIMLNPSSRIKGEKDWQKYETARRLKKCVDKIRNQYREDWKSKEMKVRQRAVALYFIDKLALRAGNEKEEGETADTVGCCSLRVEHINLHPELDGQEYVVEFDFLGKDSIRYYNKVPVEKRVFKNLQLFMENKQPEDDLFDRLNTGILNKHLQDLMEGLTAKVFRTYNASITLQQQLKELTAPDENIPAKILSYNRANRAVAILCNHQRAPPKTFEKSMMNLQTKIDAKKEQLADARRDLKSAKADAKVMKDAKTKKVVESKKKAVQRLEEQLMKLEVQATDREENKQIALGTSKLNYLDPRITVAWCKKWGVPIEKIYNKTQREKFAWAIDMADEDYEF
assay_comment: Inhibition of human recombinant topoisomerase 1-mediated relaxation of supercoiled pBR322 DNA at 20 uM after 30 mins using ethidium bromide staining by transillumination analysis
Express your answer in %, writing the number without its unit.

Worked cases, inhibition given:
| compound | system_name | recorded_endpoint | result_value |
| --- | --- | --- | --- |
| CCCNCC(O)COc1cc(O)c2c(=O)c3ccccc3oc2c1 (centres undefined) | DNA topoisomerase 1 (Homo sapiens) (UniProt P11387) | inhibition | 0 |
| O=c1c2ccccc2oc2cc(OCC(O)CNCCO)cc(O)c12 (centres undefined) | DNA topoisomerase 1 (Homo sapiens) (UniProt P11387) | inhibition | 1.08 |
| O=c1c2ccccc2oc2cc(OCC(O)CN(CCO)CCO)cc(O)c12 (centres undefined) | DNA topoisomerase 1 (Homo sapiens) (UniProt P11387) | inhibition | 0 |

We next turn to a different compound, shown below.
Prompt line: // lookup inhibition | system=DNA topoisomerase 1 (Homo sapiens) (UniProt P11387) | key= O=c1c2ccccc2oc2cc(OCC(O)CSCCO)cc(O)c12 (centres undefined)
Response line: 0
